# Test system: NCI-H1876 complex spheroid growth, % test/control
# protocol description: Anticancer human tumor NCI-H1876 cell line growth inhibition [Asc];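 also: compound exposure lasted 7 days starting three days after seeding; 100% = DMSO vehicle control wells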
# conditions: second compound 0.316 µM; first compound 1 µM; hits give low values
# Description: Multicellular complex tumor spheroid response to apoptosis pathway targeting inhibitors Alrizomadlin, Pelcitoclax, and Dasminapant in combination with a variety of drugs and investigational agents in selected tumor cell lines […] Compounds. […] If the clinical Cmax for an agent had not been determined, the highest concentration tested was 10 microM. […]
Item-by-item account of viability, T/C

compound	viability, T/C, %
O=C(c1cc(Cc2n[nH]c(=O)c3ccccc23)ccc1F)N1CCN(C(=O)C2CC2)CC1 + Cc1c(S(C)(=O)=O)c(-c2cc(F)cc(N3CCN(c4ccc(NS(=O)(=O)c5ccc(NC(CCN6CCC(C(=O)OCCCP(=O)(O)O)CC6)CSc6ccccc6)c(S(=O)(=O)C(F)(F)F)c5)cc4)CC3)c2)c(-c2ccc(Cl)cc2)n1C(C)C	97.9
COc1c(OCCCN2CCOCC2)ccc2c3n(c(=NC(=O)c4cnc(N)nc4)nc12)CCN3 + CNC(C)C(=O)NC1CN(S(=O)(=O)c2cccc(S(=O)(=O)N3CCC4CCC(C(=O)NC(c5ccccc5)c5ccccc5)N4C(=O)C(NC(=O)C(C)NC)C3)c2)CCC2CCC(C(=O)NC(c3ccccc3)c3ccccc3)N2C1=O	56.4
CNC(C)C(=O)NC1CN(S(=O)(=O)c2cccc(S(=O)(=O)N3CCC4CCC(C(=O)NC(c5ccccc5)c5ccccc5)N4C(=O)C(NC(=O)C(C)NC)C3)c2)CCC2CCC(C(=O)NC(c3ccccc3)c3ccccc3)N2C1=O (stereo unspecified) + Cc1c(S(C)(=O)=O)c(-c2cc(F)cc(N3CCN(c4ccc(NS(=O)(=O)c5ccc(NC(CCN6CCC(C(=O)OCCCP(=O)(O)O)CC6)CSc6ccccc6)c(S(=O)(=O)C(F)(F)F)c5)cc4)CC3)c2)c(-c2ccc(Cl)cc2)n1C(C)C	104
C#Cc1c(F)ccc2cc(O)cc(-c3ncc4c(N5CC6CCC(C5)N6)nc(OCC56CCCN5CC(F)C6)nc4c3F)c12 (stereo unspecified) + CNC(C)C(=O)NC1CN(S(=O)(=O)c2cccc(S(=O)(=O)N3CCC4CCC(C(=O)NC(c5ccccc5)c5ccccc5)N4C(=O)C(NC(=O)C(C)NC)C3)c2)CCC2CCC(C(=O)NC(c3ccccc3)c3ccccc3)N2C1=O	108
C=CC(=O)N1CCN(c2nc(=O)n(-c3c(C)ccnc3C(C)C)c3nc(-c4c(O)cccc4F)c(F)cc23)C(C)C1 (stereo unspecified) + CNC(C)C(=O)NC1CN(S(=O)(=O)c2cccc(S(=O)(=O)N3CCC4CCC(C(=O)NC(c5ccccc5)c5ccccc5)N4C(=O)C(NC(=O)C(C)NC)C3)c2)CCC2CCC(C(=O)NC(c3ccccc3)c3ccccc3)N2C1=O	101
COc1c(OCCCN2CCOCC2)ccc2c3n(c(=NC(=O)c4cnc(N)nc4)nc12)CCN3 + Cc1c(S(C)(=O)=O)c(-c2cc(F)cc(N3CCN(c4ccc(NS(=O)(=O)c5ccc(NC(CCN6CCC(C(=O)OCCCP(=O)(O)O)CC6)CSc6ccccc6)c(S(=O)(=O)C(F)(F)F)c5)cc4)CC3)c2)c(-c2ccc(Cl)cc2)n1C(C)C	20.1

====

# Tested on: NCI-H1876 complex spheroid growth, % test/control
# protocol description: Anticancer human tumor NCI-H1876 cell line growth inhibition [Asc];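 also: compound exposure lasted 7 days starting three days after seeding; 100% = DMSO vehicle control wells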
# conditions: second compound 0.316 µM; first compound 0.316 µM; hits give low values
Item-by-item account of viability, T/C
parameter measured: viability, T/C (%)

compound	study system	numeric readout
C=CC(=O)N1CCN(c2nc(=O)n(-c3c(C)ccnc3C(C)C)c3nc(-c4c(O)cccc4F)c(F)cc23)C(C)C1 (stereo not drawn) + Cc1c(S(C)(=O)=O)c(-c2cc(F)cc(N3CCN(c4ccc(NS(=O)(=O)c5ccc(NC(CCN6CCC(C(=O)OCCCP(=O)(O)O)CC6)CSc6ccccc6)c(S(=O)(=O)C(F)(F)F)c5)cc4)CC3)c2)c(-c2ccc(Cl)cc2)n1C(C)C	NCI-H1876 complex spheroid growth, % test/control	97.6
C=CC(=O)N1CCN(c2nc(=O)n(-c3c(C)ccnc3C(C)C)c3nc(-c4c(O)cccc4F)c(F)cc23)C(C)C1 (stereo not drawn) + CNC(C)C(=O)NC1CN(S(=O)(=O)c2cccc(S(=O)(=O)N3CCC4CCC(C(=O)NC(c5ccccc5)c5ccccc5)N4C(=O)C(NC(=O)C(C)NC)C3)c2)CCC2CCC(C(=O)NC(c3ccccc3)c3ccccc3)N2C1=O	NCI-H1876 complex spheroid growth, % test/control	100
O=C(c1cc(Cc2n[nH]c(=O)c3ccccc23)ccc1F)N1CCN(C(=O)C2CC2)CC1 + Cc1c(S(C)(=O)=O)c(-c2cc(F)cc(N3CCN(c4ccc(NS(=O)(=O)c5ccc(NC(CCN6CCC(C(=O)OCCCP(=O)(O)O)CC6)CSc6ccccc6)c(S(=O)(=O)C(F)(F)F)c5)cc4)CC3)c2)c(-c2ccc(Cl)cc2)n1C(C)C	NCI-H1876 complex spheroid growth, % test/control	93.5

====

# Test system: NCI-H1876 complex spheroid growth, % test/control
# protocol description: Anticancer human tumor NCI-H1876 cell line growth inhibition [Asc];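 also: compound exposure lasted 7 days starting three days after seeding; 100% = DMSO vehicle control wells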
# conditions: second compound 1 µM; first compound 0.00949 µM; hits give low values

molecule	units symbol	viability, T/C
Cc1nc(N2CCC3(CC2)COC(C)C3N)c(CO)nc1Sc1ccnc(N)c1Cl (configuration not stated) + Cc1c(S(C)(=O)=O)c(-c2cc(F)cc(N3CCN(c4ccc(NS(=O)(=O)c5ccc(NC(CCN6CCC(C(=O)OCCCP(=O)(O)O)CC6)CSc6ccccc6)c(S(=O)(=O)C(F)(F)F)c5)cc4)CC3)c2)c(-c2ccc(Cl)cc2)n1C(C)C	%	94.2
NC(=O)C(=Cn1cnc(-c2cc(C(F)(F)F)cc(C(F)(F)F)c2)n1)c1cncnc1 + Cc1c(S(C)(=O)=O)c(-c2cc(F)cc(N3CCN(c4ccc(NS(=O)(=O)c5ccc(NC(CCN6CCC(C(=O)OCCCP(=O)(O)O)CC6)CSc6ccccc6)c(S(=O)(=O)C(F)(F)F)c5)cc4)CC3)c2)c(-c2ccc(Cl)cc2)n1C(C)C	%	89.7

====

# System: NCI-H1876 complex spheroid growth, % test/control
# protocol description: Anticancer human tumor NCI-H1876 cell line growth inhibition [Asc];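 also: compound exposure lasted 7 days starting three days after seeding; 100% = DMSO vehicle control wells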
# conditions: second compound 0.0316 µM; first compound 0.00949 µM; hits give low values
parameter measured: viability, T/C

molecule	study system	parameter measured	result
CCN1C(C(=O)NC23CCC(C(=O)O)(CC2)CC3)C(c2cccc(Cl)c2F)C2(C(=O)Nc3cc(Cl)ccc32)C12CCCCC2 (stereo unspecified) + CNC(C)C(=O)NC1CN(S(=O)(=O)c2cccc(S(=O)(=O)N3CCC4CCC(C(=O)NC(c5ccccc5)c5ccccc5)N4C(=O)C(NC(=O)C(C)NC)C3)c2)CCC2CCC(C(=O)NC(c3ccccc3)c3ccccc3)N2C1=O	NCI-H1876 complex spheroid growth, % test/control	viability, T/C	105%
CCN1C(C(=O)NC23CCC(C(=O)O)(CC2)CC3)C(c2cccc(Cl)c2F)C2(C(=O)Nc3cc(Cl)ccc32)C12CCCCC2 (stereo unspecified) + Cc1c(S(C)(=O)=O)c(-c2cc(F)cc(N3CCN(c4ccc(NS(=O)(=O)c5ccc(NC(CCN6CCC(C(=O)OCCCP(=O)(O)O)CC6)CSc6ccccc6)c(S(=O)(=O)C(F)(F)F)c5)cc4)CC3)c2)c(-c2ccc(Cl)cc2)n1C(C)C	NCI-H1876 complex spheroid growth, % test/control	viability, T/C	97.3%
Cc1nc(N2CCC3(CC2)COC(C)C3N)c(CO)nc1Sc1ccnc(N)c1Cl (stereo unspecified) + Cc1c(S(C)(=O)=O)c(-c2cc(F)cc(N3CCN(c4ccc(NS(=O)(=O)c5ccc(NC(CCN6CCC(C(=O)OCCCP(=O)(O)O)CC6)CSc6ccccc6)c(S(=O)(=O)C(F)(F)F)c5)cc4)CC3)c2)c(-c2ccc(Cl)cc2)n1C(C)C	NCI-H1876 complex spheroid growth, % test/control	viability, T/C	106%
NC(=O)C(=Cn1cnc(-c2cc(C(F)(F)F)cc(C(F)(F)F)c2)n1)c1cncnc1 + CNC(C)C(=O)NC1CN(S(=O)(=O)c2cccc(S(=O)(=O)N3CCC4CCC(C(=O)NC(c5ccccc5)c5ccccc5)N4C(=O)C(NC(=O)C(C)NC)C3)c2)CCC2CCC(C(=O)NC(c3ccccc3)c3ccccc3)N2C1=O	NCI-H1876 complex spheroid growth, % test/control	viability, T/C	92.4%
Cc1nc(N2CCC3(CC2)COC(C)C3N)c(CO)nc1Sc1ccnc(N)c1Cl (stereo unspecified) + CNC(C)C(=O)NC1CN(S(=O)(=O)c2cccc(S(=O)(=O)N3CCC4CCC(C(=O)NC(c5ccccc5)c5ccccc5)N4C(=O)C(NC(=O)C(C)NC)C3)c2)CCC2CCC(C(=O)NC(c3ccccc3)c3ccccc3)N2C1=O	NCI-H1876 complex spheroid growth, % test/control	viability, T/C	94.4%
NC(=O)C(=Cn1cnc(-c2cc(C(F)(F)F)cc(C(F)(F)F)c2)n1)c1cncnc1 + Cc1c(S(C)(=O)=O)c(-c2cc(F)cc(N3CCN(c4ccc(NS(=O)(=O)c5ccc(NC(CCN6CCC(C(=O)OCCCP(=O)(O)O)CC6)CSc6ccccc6)c(S(=O)(=O)C(F)(F)F)c5)cc4)CC3)c2)c(-c2ccc(Cl)cc2)n1C(C)C	NCI-H1876 complex spheroid growth, % test/control	viability, T/C	94.4%
